Tested on: R275C
assay name: modulators of BK channel variants, profiling panel, selectivity assay, cell-based, U2OS BacMam, thallium flux, beta subunits (AID 1259406);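 note: initial slope of Thallos dye fluorescence rise after thallium is added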
recorded conditions: at 30 µM
Active and inactive are the calls of the source.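 Rule for the calls: active = thallium flux through the channel raised or lowered by more than 3 SD from vehicle-only wells, actives on both sides; inactive = the rest.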
Please state which outcome applies, choosing from YES = active, NO = inactive

-- ask I'd appreciate the recorded outcome for `COC(=O)c1cc(S(=O)(=O)N(Cc2ccc(OC)cc2)Cc2cccn2C)oc1C` from this test.
-- reply YES

-- ask How was `Cc1noc(C)c1C(=O)Sc1nccc(C(F)(F)F)n1` classified in this test?
-- reply NO

-- ask Lab log entry: `CSc1nnc(SCC(=O)c2ccc3c(c2)OCCO3)s1` — outcome as called in the assay?
-- reply NO

-- ask For O=C(OC1C[C@@H]2CC3C[C@H](C1)N2CC3=O)c1c[nH]c2ccccc12 (stereo partly drawn) , which call appears in the assay record?
-- reply NO

-- ask Identify the outcome logged in this assay for the molecule shown: `C=CC[C@@H]1C=C(C)C[C@H](C)C[C@H](OC)[C@H]2O[C@@](O)(C(=O)C(=O)N3CCCC[C@H]3C(=O)O[C@H](/C(C)=C/[C@@H]3CC[C@@H](O)[C@H](OC)C3)[C@H](C)[C@@H](O)CC1=O)[C@H](C)C[C@@H]2OC`
-- reply NO

-- ask Any idea what this test logged for `Clc1ccc(-c2nc(-c3cnccn3)no2)cc1` ?
-- reply NO

-- ask Hello, I am checking results. What call was entered for `CS(=O)(=O)C(C#N)=NNc1ccc(OC(F)(F)F)cc1` ?
-- reply NO

-- ask Outcome logged for `COc1cc(/C=C/c2ccc(O)cc2)cc(OC)c1` in this assay:
-- reply YES

-- ask Record lookup: outcome of this test for `Cn1c(SCc2ccc(C(F)(F)F)cc2)nnc1C(F)(F)F` ?
-- reply NO

-- ask What was the test verdict on `CCOC(=O)c1ccc(NC(=O)CCC(=O)O)cc1` ?
-- reply NO

-- ask Dear all, I need the recorded test outcome for `Cc1noc(C=Cc2sccc2C2OCCO2)c1[N+](=O)[O-]` , thank you.
-- reply NO

-- ask Just curious, what result did `Clc1ccc(-n2nnnc2-c2cccnc2)c(Cl)c1` get here?
-- reply NO

-- ask State the result this test recorded for `COC(=O)c1sccc1NN=C(C)c1ccc(NC(=O)C(Cl)Cl)cc1` .
-- reply NO

-- ask Called result for `N#CC(=Cc1cccs1)C(N)=O`
-- reply NO

-- ask Dear colleague, could you share the recorded outcome for `CSc1nc(N)nc(-c2cccs2)n1` when you have a moment?
-- reply NO

-- ask Recorded call for C[C@H]1O[C@@H](O[C@H]2[C@@H](O)C[C@H](O[C@H]3[C@@H](O)C[C@H](O[C@H]4CC[C@@]5(C)[C@H](CC[C@@H]6[C@@H]5C[C@@H](O)[C@]5(C)C(C7=CC(=O)OC7)CC[C@]65O)C4)O[C@@H]3C)O[C@@H]2C)C[C@H](O)[C@@H]1O (stereo partly drawn) ?
-- reply NO

-- ask Any idea what this test logged for `NC(=NNC(=O)c1cccnc1)c1ccncc1` ?
-- reply NO

-- ask Call for entry `Cc1c(C(=O)NN2CCCCC2)nn(-c2ccc(Cl)cc2Cl)c1-c1ccc(I)cc1` :
-- reply NO

-- ask Could you please tell me the result logged for `Cc1nnc(-c2ccccn2)[nH]c1=O` in this assay?
-- reply NO

-- ask Recorded test outcome, item Cc1cc(=O)oc2cc(NC(=O)C3CCC(=O)N3)ccc12 (stereo not drawn)
-- reply NO

-- ask What is the recorded call for this molecule in the test? `CC(=O)CSc1nc(SCC(C)=O)c2cnc(N3CCCC3)nc2n1`
-- reply NO

-- ask // return assay outcome for `COC(=O)C(C#N)=C1NC(C)=NC(SC)=C1C#N`
-- reply NO

-- ask # lookup: test call for `Cc1onc(-c2c(Cl)cccc2Cl)c1C1=NCCO1`
-- reply NO

-- ask Any idea what this test logged for `CC(=O)c1sc(SCc2ccc(Cl)cc2)c2c1CC(C)(C)CC2=O` ?
-- reply NO

-- ask Test call, this molecule: `C=CCNC(SC)=C(C#N)C(N)=O`
-- reply NO

-- ask Name the outcome recorded for Cc1nnc(SCC2=C(C(=O)O)N3C(=O)C(NC(=O)Cn4cnnn4)C3SC2)s1 (stereo not drawn) in the assay.
-- reply NO

-- ask Per the assay record, what outcome was assigned to `O=C(Nc1ccc(Cl)cc1)c1cnccc1C(F)(F)F` ?
-- reply NO

-- ask Query: recorded result category for `C=C1/C(=C\C=C2/CCC[C@]3(C)[C@@H]([C@H](C)CCCC(C)(C)O)CC[C@@H]23)C[C@@H](O)C[C@@H]1O` in this test
-- reply NO

-- ask How did this test come out for COc1ccc2[nH]c(S(=O)Cc3ncc(C)c(OC)c3C)nc2c1 (stereo not drawn) ?
-- reply NO

-- ask Hey, what did the test say about CCOC(=O)C1CCC(C(=O)OCC)N1C(=O)Nc1ccc(Cl)cc1 (stereo not drawn) ?
-- reply NO

-- ask # lookup: test call for `Cc1ccc(I)cc1[N+](=O)[O-]`
-- reply NO

-- ask Which outcome was entered for the molecule `CN(C)CCc1c[nH]c2ccc(Cn3cncn3)cc12` in this test?
-- reply YES

-- ask Recorded test call requested for `O=C(O)Cc1ccc([N+](=O)[O-])cc1`
-- reply NO

-- ask Identify the outcome logged in this assay for the molecule shown: `COc1cccc(C(=O)Nc2cc(F)c(Br)cc2F)c1`
-- reply NO

-- ask Tell me the recorded outcome of this test for `CN1c2ccsc2C(=O)C(=NNc2cccc(C(F)(F)F)c2)S1(=O)=O` .
-- reply NO

-- ask # outcome recorded in this test, key = `COC(=O)C(C#N)=CN(C)C`
-- reply NO

-- ask // return assay outcome for `O=C(O)COCCN1CCN([C@H](c2ccccc2)c2ccc(Cl)cc2)CC1`
-- reply NO

-- ask Could you kindly confirm the outcome this assay logged for `CO[C@H]1C=CO[C@@]2(C)Oc3c(C)c(O)c4c(O)c(c5c(c4c3C2=O)NC2(CCN(CC(C)C)CC2)N=5)=NC(=O)C(C)=CC=C[C@H](C)[C@H](O)[C@@H](C)[C@@H](O)[C@@H](C)[C@H](OC(C)=O)[C@@H]1C` ?
-- reply YES
